# tgt: UniProt P25090
# Sequence (P25090 whole entry): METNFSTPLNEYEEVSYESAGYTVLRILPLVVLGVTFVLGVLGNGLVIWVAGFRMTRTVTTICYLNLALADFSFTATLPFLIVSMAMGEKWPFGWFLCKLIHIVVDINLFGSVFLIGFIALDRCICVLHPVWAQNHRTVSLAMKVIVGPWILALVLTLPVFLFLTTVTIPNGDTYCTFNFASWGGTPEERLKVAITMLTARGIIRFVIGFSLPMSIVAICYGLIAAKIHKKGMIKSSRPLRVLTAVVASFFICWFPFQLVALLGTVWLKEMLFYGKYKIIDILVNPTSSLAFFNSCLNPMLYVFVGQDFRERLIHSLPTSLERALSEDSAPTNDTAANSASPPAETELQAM
# assay.protocol: FPR2 cyclic adenosine monophosphate (cAMP) assay
# conditions: CHO cells overexpressing human FPR2; forskolin 5 µM; inhibition of cAMP production; read-out: hFPR2 cAMP2 EC50
readout.name: EC50 (nM)

For orientation, consider the following solved cases.
molecule | readout.value
COc1cc(F)c([C@H]2[C@H](NC(=O)c3ccc(OC(F)F)cc3)C(=O)N(c3cccc(OCCO)n3)[C@H]2C)c(F)c1 [Example 559] | 6.6
COc1cc(F)c([C@H]2[C@H](NC(=O)c3ccc(Cl)cc3)C(=O)N(c3nccn(CC(F)F)c3=O)[C@@H]2C)c(F)c1 [Example 554] | 4.3

[1] CCn1nccc(N2C[C@@H](c3ccc(OC)cc3)[C@H](NC(=O)c3ccc(OC(F)(F)F)cc3)C2=O)c1=O [Example 675]
[2] COc1ccc([C@@H]2CN(c3cccn(CC(O)C(F)(F)F)c3=O)C(=O)[C@H]2NC(=O)c2ccc(OC(F)(F)F)cc2)cc1 (stereo partly drawn) [Example 657]
I'd appreciate it if you could identify which of 1 and 2 has the greater EC50. State your choice using its label.
1
